Assay: Blood and tissue DTG levels and animal weights in hu-PBL-NSG mice
Assay type: in vivo
Conditions: NOD/scid-IL-2Rγc^null (NSG), mouse, intramuscular, 45 mg/kg DTG-eq.; kidney, day 39; read-out: tissue DTG level
Experimental: NOD/scid-IL-2Rγc^null (NSG) mice (6–7 weeks of age; Jackson Labs, Bar Harbor, ME) were administered a single IM injection in a volume of 40 µL/25 g mouse of NDTG or NMDTG at a concentration of 45 mg/kg DTG-eq. on day 0 for measures of relative viral restriction. […] Plasma was saved for viral load (HIV-1 RNA) quantitation using the Roche Amplicor and Taqman-48 system [HIV-1 kit V2.0 according to the manufacturer’s instructions (Indianapolis, IN)]. […]

MOLECULE: C[C@@H]1CCO[C@H]2Cn3cc(C(=O)NCc4ccc(F)cc4F)c(=O)c(O)c3C(=O)N12
UNIT OF MEASURE: ng/g
concentration at 39 days: 4.1

Attribution: paper PMC5799307
